The values you see were collected from ChEMBL document CHEMBL4513216.

assay: Toxicity liver stage against HepG2, at 10uM; type: cell-based; parameters: test concentration 10 uM, cell line HepG2-A16-CD81EGFP; conditions: human, HepG2-A16-CD81EGFP cells; read-out: INHIBITION
For each entry below, report its cytotoxicity at 10 µM value.
One number for each entry, in %.

Check out these entries, answers already filled in.
CC(C)CN1C(=O)CO[C@@H]2CNC[C@H]21 :: -110
Cc1oc(-c2ccsc2)nc1CNCCn1cccn1 :: -3.36
CCCNC(=O)N1CCC(c2nnc(Cn3cccn3)n2C2CC2)CC1 :: -7.92

Okay, here is my list. What is cytotoxicity at 10 µM for each of these?
1. CS(=O)(=O)Cc1ccc(Cl)cc1NCc1ccccc1F
2. CC(C)CCN1CCNC(=O)C1CC(=O)N1CCc2sccc2C1 (stereo not given)
3. COc1cccc([C@@H]2CCN(Cc3cn(C)c4ccccc34)C[C@H]2O)c1

Reply |
1: 6.8; 2: -7.01; 3: 14.7

Your task in this section: give cytotoxicity at 10 µM for each listed record.
1. c1cc(CC2CCCNC2)nc(NCCc2cnccn2)c1 (stereo not given)
2. O=C(c1c2c(NCC3CC3)ncnc2n2ccccc12)N1CCOCC1
3. Cc1nc(C)n(CC2CCCN(CC(=O)N3CCCC3)C2)n1 (stereo not given)

Reply |
[3.64, 9.82, -8.31]

For every item below, please supply its cytotoxicity at 10 µM.
1. Cc1n[nH]c2c1C(c1cc(F)cc(F)c1)SCC(=O)N2 (stereo not given)
2. CC(C)OCCCNC(=O)CN1CCN(c2nccs2)C(C)C1 (stereo not given)
3. Cc1occc1C(=O)NCc1ccc(N2CCCC(C(N)=O)C2)cc1 (stereo not given)

Reply |
1. 2.03
2. 1.4
3. 1.49

Give cytotoxicity at 10 µM for all compounds that follow.
1. CC(NC(=O)C1=NN(C)C(=O)CC1)c1ccccc1Cl (stereo not given)
2. Cc1ncsc1COC(=O)c1cccc2c1OCCO2
3. NC(=O)C1(CNC(=O)CCc2ccc(Cl)s2)CCOCC1

Reply |
1. 0.665
2. 1.37
3. 9.09

# map each compound to its cytotoxicity at 10 µM
1. NC(=O)CC1CCN(S(=O)(=O)c2cnn(-c3ccccc3)c2)CC1
2. Cc1nc(-c2ccc(S(=O)(=O)N3CCSC3)cc2)co1
3. CCOc1ccc(CN2CC[C@@](C)(O)[C@@H](Cc3ccccc3)C2)cn1
4. NC1CCN(C(=O)c2c(F)cccc2Br)CC1

Reply |
1. 12
2. 17.2
3. -2.02
4. 11.4

I would be grateful if you could provide cytotoxicity at 10 µM for each of the following entries.
1. CCc1nnc2n1CCN(C(=O)c1cc3ccccc3[nH]1)C2
2. CCOCC1c2c(ncn2C(C)C)CCN1C(C)C (stereo not given)
3. c1coc(-c2noc(CN3CCCC(Cn4cncn4)C3)n2)c1 (stereo not given)
4. CC(c1cccnc1)N(C)C(=O)NCCOc1ccc(C#N)cc1 (stereo not given)
5. Cc1ccc(C2CSCCN2C(=O)c2ccc(C(N)=O)cc2)o1 (stereo not given)
6. COC[C@]12COC[C@H]1CN(C(=O)C1CCSCC1)C2

Reply |
[4.38, 10.5, -7.23, -6.17, -2.12, 2.2]

List reported cytotoxicity at 10 µM for each of these compounds:
1. CNC(=O)C1Cc2ccccc2CN1CCCc1ccccc1 (stereo not given)
2. COCc1ncc(CN2CC(Oc3c(C)cccc3C)C2)cn1
3. O=C(NCCc1nnc2n1CCC2)NCC1(c2ccc(F)cc2)CC1
4. Cn1cnc(S(=O)(=O)N2CC3(CCN(CC4CC4)C3)C2)c1
5. CCOc1cc(/C=C/c2ncc(C(=O)O)s2)cc(Cl)c1OC

Reply |
1: 4.23; 2: 5.12; 3: -2.23; 4: -99.2; 5: 8.13
